test: total protein half-life in vivo (active degradation + dilution); higher = more stable protein; settings: wild type E. coli NCM3722; growth: C-lim chemostat; doubling time 12 h
Please go through the items and note down their total protein half-life in vivo.
Reply with just the number (in h).

Requested field: total protein half-life in vivo. Item: `MFSIQQPLLVFSDLDGTLLDSHSYDWQPAAPWLTRLREANVPVILCSSKTSAEMLYLQKTLGLQGLPLIAENGAVIQLAEQWQEIDGFPRIISGISHGEISLVLNTLREKEHFKFTTFDDVDDATIAEWTGLSRSQAALTQLHEASVTLIWRDSDERMAQFTARLNELGLQFMQGARFWHVLDASAGKDQAANWIIATYQQLSGKRPTTLGLGDGPNDAPLLEVMDYAVIVKGLNREGVHLHDEDPARVWRTQREGPEGWREGLDHFFSAR` 8.64

Requested field: total protein half-life in vivo. Item: `MIRLSEQSPLGTGRHRKCYAHPEDAQRCIKIVYHRGDGGDKEIRRELKYYAHLGRRLKDWSGIPRYHGTVETDCGTGYVYDVIADFDGKPSITLTEFAEQCRYEEDIAQLRQLLKQLKRYLQDNRIVTMSLKPQNILCHRISESEVIPVVCDNIGESTLIPLATWSKWCCLRKQERLWKRFIAQPALAIALQKDLQPRESKTLALTSREA` 10.7

Requested field: total protein half-life in vivo. Item: MQARVKWVEGLTFLGESASGHQILMDGNSGDKAPSPMEMVLMAAGGCSAIDVVSILQKGRQDVVDCEVKLTSERREEAPRLFTHINLHFIVTGRDLKDAAVARAVDLSAEKYCSVALMLEKAVNITHSYEVVAA [P0ADX1] 10.8

Requested field: total protein half-life in vivo. Item: MIVLPRRLSDEVADRVRALIDEKNLEAGMKLPAERQLAMQLGVSRNSLREALAKLVSEGVLLSRRGGGTFIRWRHDTWSEQNIVQPLKTLMADDPDYSFDILEARYAIEASTAWHAAMRATPGDKEKIQLCFEATLSEDPDIASQADVRFHLAIAEASHNIVLLQTMRGFFDVLQSSVKHSRQRMYLVPPVFSQLTEQHQAVIDAIFAGDADGARKAMMAHLSFVHTTMKRFDEDQARHARITRLPGEHNEHSREKNA [P0ACL7] 2.72

Requested field: total protein half-life in vivo. Item: `MQSVDVAIVGGGMVGLAVACGLQGSGLRVAVLEQRVQEPLAANAPPQLRVSAINAASEKLLTRLGVWQDILSRRASCYHGMEVWDKDSFGHISFDDQSMGYSHLGHIVENSVIHYALWNKAHQSSDITLLAPAELQQVAWGENETFLTLKDGSMLTARLVIGADGANSWLRNKADIPLTFWDYQHHALVATIRTEEPHDAVARQVFHGEGILAFLPLSDPHLCSIVWSLSPEEAQRMQQASEDEFNRALNIAFDNRLGLCKVESARQVFPLTGRYARQFASHRLALVGDAAHTIHPLAGQGVNLGFMDAAELIAELKRLHRQGKDIGQYIYLRRYERSRKHSAALMLAGMQGFRDLFSGTNPAKKLLRDIGLKLADTLPGVKPQLIRQAMGLNDLPEWLR` 7.26

Requested field: total protein half-life in vivo. Item: `MYHDVSYLLSRLINGPLSLRQIYFASSNGPVPDLAYQVDFPRLEIVLEGEFVDTGAGATLVPGDVLYVPAGGWNFPQWQAPATTFSVLFGKQQLGFSVVQWDGKQYQNLAKQHVARRGPRIGSFLLQTLNEMQMQPQEQQTARLIVASLLSHCRDLLGSQIQTASRSQALFEAIRDYIDERYASALTRESVAQAFYISPNYLSHLFQKTGAIGFNEYLNHTRLEHAKTLLKGYDLKVKEVAHACGFVDSNYFCRLFRKNTERSPSEYRRQYHSQLTEKPTTPE` 8.52
